Experiment: In vivo PK study in male Sprague Dawley rats
Conditions: male, Sprague Dawley, rat, plasma; rats, PO, dosage of 3 mg/kg
Tmax by entry:
quantity: Tmax (h)

| chemSmiles | quantity | readingUnit | number |
| --- | --- | --- | --- |
| C[C@H](n1cnc2c(-c3cnn(C)c3)nc(-c3ccc(Cl)cc3)cc2c1=O)C(C)(C)O | Tmax | h | 3.33 |
| Cn1cc(-c2nc(-c3ccc(C(F)(F)F)cn3)cc3c(=O)n(CC(C)(C)O)cnc23)cn1 | Tmax | h | 8 |
| Cn1cc(-c2nc(-c3ccc(C(F)(F)F)nc3)cc3c(=O)n(CC(C)(C)O)cnc23)cn1 | Tmax | h | 5.33 |
| C[C@@H](CO)n1cnc2c(-c3cccc(F)c3)nc(-c3ccc(Cl)cc3)cc2c1=O | Tmax | h | 3.33 |
| C[C@@H](CO)n1cnc2c(-c3cccnc3)nc(-c3ccc(C(F)(F)F)cn3)cc2c1=O | Tmax | h | 3.33 |
| CC(C)(O)Cn1cnc2c(-c3cccnc3)nc(-c3ccc(C(F)(F)F)cn3)cc2c1=O | Tmax | h | 6.67 |
| O=c1c2cc(-c3ccc(C(F)(F)F)nc3)nc(-c3cccnc3)c2ncn1[C@@H]1COC[C@H]1O | Tmax | h | 1 |

----------
Test: Hepatocyte Stability Assay, human
Assay type: in vitro ADME
Settings: human, plated hepatocytes; plated hepatocyte, Alliance assay; read-out: Human hepatocyte clearance Plated hepatocyte Alliance assay
CLint scaled by entry:
quantity: CLint scaled

| chemSmiles | quantity | result |
| --- | --- | --- |
| C[C@@H](CO)n1cnc2c(-c3cccnc3)nc(-c3ccc(C(F)(F)F)nc3)cc2c1=O | CLint scaled | < 20 mL/min/kg |
| O=c1c2cc(-c3ccc(C(F)(F)F)nc3)nc(-c3cccnc3)c2ncn1C[C@H](O)C(F)(F)F | CLint scaled | < 20 mL/min/kg |
| C[C@@H](CO)n1cnc2c(-c3cnn(C)c3)nc(-c3ccc(C4CC4)nc3)cc2c1=O | CLint scaled | < 20 mL/min/kg |
| C[C@@H](CO)n1cnc2c(-n3ccnc3)nc(-c3ccc(C(F)(F)F)nc3)cc2c1=O | CLint scaled | < 20 mL/min/kg |
| C[C@@H](CO)n1cnc2c(-c3cnn(C)c3)nc(-c3ccc(C(F)(F)F)nc3)cc2c1=O | CLint scaled | < 20 mL/min/kg |

----------
Assay: Plasma Protein Binding with Ultracentrifugation Method, rat
Assay type: in vitro ADME
Settings: rat, plasma; read-out: Plasma Protein Binding PPB (r) % (converted)

| chemSmiles | fraction unbound at 5.5 h, 1 μM |
| --- | --- |
| CC(C)(O)Cn1cnc2c(-c3cccnc3)nc(-c3ccc(C(F)(F)F)nc3)cc2c1=O | 0.098 |
| C[C@@H](CO)n1cnc2c(-c3cccnc3)nc(-c3ccc(C(F)(F)F)cn3)cc2c1=O | 0.102 |

----------
Vd by entry:
Assay: In vivo PK study in male CD1 mice
Details: male, CD1, plasma, intravenous, 1 mg/kg; in vivo DMPK profile, mouse; read-out: Mouse Vss

| chemSmiles | Vd (L/kg) |
| --- | --- |
| C[C@@H](CO)n1cnc2c(-c3cccnc3)nc(-c3ccc(C(F)(F)F)cn3)cc2c1=O | 2.3 |
| CC(C)(O)Cn1cnc2c(-c3cccnc3)nc(-c3ccc(C(F)(F)F)nc3)cc2c1=O | 1.9 |
